Each record here notes measured microsomal CLint.
method_description: Intrinsic clearance in human liver microsomes
Format: ADME, Microsome
Write the value in µL/min/mg as a bare number.

input_smiles	microsomal CLint [µL/min/mg]
CC1(C)CN2C(CS/C(=N\C3CCCCC3)NC3CCCCC3)=CSC2=N1	149

Could you now consider this next compound?
Looking for the measured microsomal CLint of C1=C(CS/C(=N\C2CCCCC2)NC2CCCCC2)N2CCN=C2S1 , can you help?
51

###

method_description: Fraction unbound in rat serum
Format: ADME, cell-free
Each record here notes measured fraction unbound.

input_smiles	fraction unbound
C1=C(CS/C(=N\C2CCCCC2)NC2CCCCC2)N2CCN=C2S1	0.54

Looking for the measured fraction unbound of CC1(C)CN2C(CS/C(=N\C3CCCCC3)NC3CCCCC3)=CSC2=N1 , can you help?
0.46

###

experimental_target: UniProt P08684
Sequence (P08684 whole entry): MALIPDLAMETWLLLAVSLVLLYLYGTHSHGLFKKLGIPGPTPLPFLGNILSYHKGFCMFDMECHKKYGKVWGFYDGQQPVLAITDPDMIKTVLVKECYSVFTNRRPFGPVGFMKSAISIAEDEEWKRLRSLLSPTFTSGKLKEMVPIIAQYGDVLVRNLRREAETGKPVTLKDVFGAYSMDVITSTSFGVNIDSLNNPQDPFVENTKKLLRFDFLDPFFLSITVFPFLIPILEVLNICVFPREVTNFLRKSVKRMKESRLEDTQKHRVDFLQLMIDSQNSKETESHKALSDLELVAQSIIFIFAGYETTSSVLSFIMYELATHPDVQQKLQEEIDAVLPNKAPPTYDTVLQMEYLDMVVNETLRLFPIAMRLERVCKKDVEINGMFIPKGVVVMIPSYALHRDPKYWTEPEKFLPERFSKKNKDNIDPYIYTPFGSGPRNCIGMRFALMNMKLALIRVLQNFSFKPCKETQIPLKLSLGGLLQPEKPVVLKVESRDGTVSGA
pIC50: −log10 of the molar value.
property: pIC50

Any idea what pIC50 came out for CC1(C)CN2C(CS/C(=N\C3CCCCC3)NC3CCCCC3)=CSC2=N1 on UniProt P08684?
< 5.00

###

experimental_target: Cytochrome P450 2C19 (Homo sapiens, UniProt P33261)
Sequence (P33261 whole entry): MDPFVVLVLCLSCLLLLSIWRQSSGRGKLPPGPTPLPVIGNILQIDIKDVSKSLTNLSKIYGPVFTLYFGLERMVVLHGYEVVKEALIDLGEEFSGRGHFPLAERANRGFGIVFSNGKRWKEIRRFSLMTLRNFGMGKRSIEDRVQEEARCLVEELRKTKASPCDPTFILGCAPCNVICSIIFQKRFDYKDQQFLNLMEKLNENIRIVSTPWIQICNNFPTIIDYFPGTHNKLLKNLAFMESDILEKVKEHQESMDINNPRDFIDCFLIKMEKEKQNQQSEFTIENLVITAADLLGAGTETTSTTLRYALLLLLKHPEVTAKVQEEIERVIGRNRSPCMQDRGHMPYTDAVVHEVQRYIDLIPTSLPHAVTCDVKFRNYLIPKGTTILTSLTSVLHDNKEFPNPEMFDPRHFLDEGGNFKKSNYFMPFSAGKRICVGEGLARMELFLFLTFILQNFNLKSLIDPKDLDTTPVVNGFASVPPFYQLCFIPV
pIC50: −log10 of the molar value.
property: pIC50

Any idea what pIC50 came out for C1=C(CS/C(=N\C2CCCCC2)NC2CCCCC2)N2CCN=C2S1 on Cytochrome P450 2C19 (Homo sapiens, UniProt P33261)?
< 5.00

###

method_description: Solubility in pH 1.0 buffer
Assay type: physicochemical
property: solubility

input_smiles	solubility
CC1(C)CN2C(CS/C(=N\C3CCCCC3)NC3CCCCC3)=CSC2=N1	> 5000 µg/mL

Could you now consider this next compound?
Looking for the measured solubility of C1=C(CS/C(=N\C2CCCCC2)NC2CCCCC2)N2CCN=C2S1 , can you help?
> 5000 µg/mL

###

experimental_target: C-C chemokine receptor type 9 (Homo sapiens, UniProt P51686)
Sequence (P51686 whole entry): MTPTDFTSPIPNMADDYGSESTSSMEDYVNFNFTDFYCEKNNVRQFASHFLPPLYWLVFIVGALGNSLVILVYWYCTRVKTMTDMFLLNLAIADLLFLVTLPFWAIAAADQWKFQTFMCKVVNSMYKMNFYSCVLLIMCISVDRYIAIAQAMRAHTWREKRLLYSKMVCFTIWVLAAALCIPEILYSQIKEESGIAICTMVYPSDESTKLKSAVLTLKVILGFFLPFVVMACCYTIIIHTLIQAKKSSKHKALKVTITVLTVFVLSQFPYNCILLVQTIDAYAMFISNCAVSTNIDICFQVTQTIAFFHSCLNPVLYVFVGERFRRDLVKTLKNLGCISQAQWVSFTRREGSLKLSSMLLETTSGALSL
property: IC50

Looking for the measured IC50 of C1=C(CS/C(=N\C2CCCCC2)NC2CCCCC2)N2CCN=C2S1 , can you help?
> 3 µM

###

Each record here notes measured IC50.
experimental_target: C-X-C chemokine receptor type 4 (Homo sapiens)
Sequence (P61073 whole entry): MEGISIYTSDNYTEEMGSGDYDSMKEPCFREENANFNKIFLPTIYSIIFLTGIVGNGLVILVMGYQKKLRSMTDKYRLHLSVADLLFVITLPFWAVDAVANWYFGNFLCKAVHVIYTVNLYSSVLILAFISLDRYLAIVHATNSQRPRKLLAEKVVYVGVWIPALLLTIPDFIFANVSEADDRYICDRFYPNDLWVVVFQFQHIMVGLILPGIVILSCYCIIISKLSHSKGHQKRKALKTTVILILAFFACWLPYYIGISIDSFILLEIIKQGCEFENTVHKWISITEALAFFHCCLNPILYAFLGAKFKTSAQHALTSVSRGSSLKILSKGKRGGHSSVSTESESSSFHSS
method_description: Displacement of [125I]CXCL12 from CXCR4 in human CEM cells
Assay type: cell-based, CCRF-CEM
Write the value in nM as a bare number.

molecule	IC50 / nM
CN(/C(=N/C1CCCCC1)SCC1=CSC2=NCCN12)C1CCCCC1	3380

Any idea what IC50 came out for C1=C(CS/C(=N\C2CCCCCCC2)NC2CCCCCCC2)N2CCN=C2S1 on C-X-C chemokine receptor type 4 (Homo sapiens)?
27

Any idea what IC50 came out for C1=C(CS/C(=N\C2CCCCC2)NC2CCCCC2)N2CCCN=C2S1 on C-X-C chemokine receptor type 4 (Homo sapiens)?
185

Any idea what IC50 came out for C1=C(CSC(=NC2CCCCC2)NC2CCCCCC2)N2CCN=C2S1 on C-X-C chemokine receptor type 4 (Homo sapiens)?
28

Any idea what IC50 came out for C1=C(CSC(=NC2CCCCC2)NC2C3CC4CC(C3)CC2C4)N2CCN=C2S1 (stereo unspecified) on C-X-C chemokine receptor type 4 (Homo sapiens)?
81

Any idea what IC50 came out for C1=C(CS/C(=N\C2CCCC2)NC2CCCC2)N2CCN=C2S1 on C-X-C chemokine receptor type 4 (Homo sapiens)?
3830

Any idea what IC50 came out for NC(N)=NCCC[C@@H]1NC(=O)[C@H](CCCN=C(N)N)NC(=O)[C@@H](Cc2ccc(O)cc2)NC(=O)CNC(=O)[C@H](c2ccc3ccccc3c2)NC1=O on C-X-C chemokine receptor type 4 (Homo sapiens)?
109

Any idea what IC50 came out for C1=C(CSC(=NC2CCCCC2)NC2CCCC2)N2CCN=C2S1 on C-X-C chemokine receptor type 4 (Homo sapiens)?
372

Any idea what IC50 came out for C1=C(CS/C(=N\C2CCCCC2)NC2CCCCC2)N2CCN=C2S1 on C-X-C chemokine receptor type 4 (Homo sapiens)?
48

Any idea what IC50 came out for CC1(C)CN2C(CS/C(=N\C3CCCCCC3)NC3CCCCCC3)=CSC2=N1 on C-X-C chemokine receptor type 4 (Homo sapiens)?
8.8

Any idea what IC50 came out for C1=C(CS/C(=N\C2CCCCC2)NC2CCCCCCC2)N2CCN=C2S1 on C-X-C chemokine receptor type 4 (Homo sapiens)?
28

Any idea what IC50 came out for C1=C(CS/C(=N\C2CCCCC2)NC23CC4CC(CC(C4)C2)C3)N2CCN=C2S1 on C-X-C chemokine receptor type 4 (Homo sapiens)?
1870

Any idea what IC50 came out for CCCCCCNC(=NC1CCCCC1)SCC1=CSC2=NCCN12 on C-X-C chemokine receptor type 4 (Homo sapiens)?
855

Any idea what IC50 came out for CC(C)(C)C1CCC(NC(=NC2CCCCC2)SCC2=CSC3=NCCN23)CC1 (stereo unspecified) on C-X-C chemokine receptor type 4 (Homo sapiens)?
1530

Any idea what IC50 came out for c1ccc(CNC(=NC2CCCCC2)SCC2CSC3=NCCN32)cc1 (stereo unspecified) on C-X-C chemokine receptor type 4 (Homo sapiens)?
10000

Any idea what IC50 came out for C1=C(CS/C(=N\C2CCCCCC2)NC2CCCCCC2)N2CCN=C2S1 on C-X-C chemokine receptor type 4 (Homo sapiens)?
25
